# TGT: T1, soluble mouse BLyS (mouse, UniProt Q9WU72 127-309)
# T1 construct: europium-labelled in DELFIA; also called mBLyS; mouse BAFF (BLyS)
# EXPERIMENT DESCRIPTION: DELFIA competition, Eu-mBLyS binding to coated BR3
# Method: After 5× washing with 200 ul/well of DELFIA 1× wash solution (PE, Cat #4010-0010), plates were blocked with 3% BSA purified from trace heavy metal amounts (PE, Cat #CR84-100) for 3 hours with shaking at room temperature. Plates were washed again five times at 200 μl/well with DELFIA wash solution. The final 3 wells across the plate served as controls (2 wells contained 2,000 pM mAbs for negative and background controls while the third contained no mAbs for positive control). […]
pIC50: −log10 of the molar value.
Listing of recorded pIC50 by entry.

Would you please look over these solved cases?
- BINDER: "tabalumab (antibody, V domains shown) VH: QVQLQQWGAGLLKPSETLSLTCAVYGGSFSGYYWSWIRQPPGKGLEWIGEINHSGSTNYNPSLKSRVTISVDTSKNQFSLKLSSVTAADTAVYYCARGYYDILTGYYYYFDYWGQGTLVTVSS VL: EIVLTQSPATLSLSPGERATLSCRASQSVSRYLAWYQQKPGQAPRLLIYDASNRATGIPARFSGSGSGTDSTLTISSLEPEDFAVYYCQQRSNWPRTFGQGTKVEIKR"
  pIC50: "< 8.70"
- BINDER: "8D12 IgG1 F243A/V264A double mutein expressed in Pichia pastoris (antibody, V domains shown, IgG1 F243A/V264A (EU) double mutein, alpha-2,6-sialylated, from glycoengineered Pichia pastoris; also called 8D12-DM; 8D12-DM (Pichia)) VH: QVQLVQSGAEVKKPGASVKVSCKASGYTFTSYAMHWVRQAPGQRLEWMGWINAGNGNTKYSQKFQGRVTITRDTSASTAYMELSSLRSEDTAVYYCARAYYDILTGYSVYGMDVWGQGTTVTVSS VL: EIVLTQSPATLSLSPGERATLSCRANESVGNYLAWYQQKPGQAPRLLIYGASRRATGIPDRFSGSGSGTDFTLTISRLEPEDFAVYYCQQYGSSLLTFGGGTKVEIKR"
  pIC50: "< 8.70"

Now for a further binder.
Incoming: Assign pIC50 to the following record: 5B7 IgG expressed in HEK293 cells (antibody, V domains shown, also called 5B7 (293); 5B7-HEK293) VH: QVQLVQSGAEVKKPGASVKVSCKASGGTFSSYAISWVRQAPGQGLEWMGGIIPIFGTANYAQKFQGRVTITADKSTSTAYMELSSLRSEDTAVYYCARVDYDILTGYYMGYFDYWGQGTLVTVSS VL: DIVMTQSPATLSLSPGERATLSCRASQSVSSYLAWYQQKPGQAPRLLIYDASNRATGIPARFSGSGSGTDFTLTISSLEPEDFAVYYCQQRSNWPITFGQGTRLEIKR
Outgoing: 9.97

// provenance: patent US20170101466A1
